Tested on: Staphylococcus aureus IID 803
Method notes: Effect on treatment of general infectious disease (systemic infection in mice), Experiment 3
Format: in vivo, Staphylococcus aureus; ddY male mice
Test conditions: Staphylococcus aureus, IID803, 168 h; oral, 1 h after i.p. infection, mice, survival after one week, average of several tests; read-out: 50% effective dose (ED50)
Structures can show the parent of a compound that is named as a salt.
Parameter measured: ED50 (mg/kg)
Express the result in mg/kg but write the number alone.

Report ED50 for CN1Cc2csc3c(C(=O)O)c(=O)c4cc(F)c(N5CCOC(CF)C5)c1c4n23 (stereo not shown) 1.9

Report ED50 for COCC1CN(c2c(F)cc3c(=O)c(C(=O)O)c4scc5n4c3c2N(C)C5)CCN1C (stereo not shown) [Compound (J), hydrochloride] 4.4

Report ED50 for `CN1Cc2csc3c(C(=O)O)c(=O)c4cc(F)c(N5CCN6CCOC[C@H]6C5)c1c4n23` 2.3

Report ED50 for CC1COc2c(N3CCN(C)CC3)c(F)cc3c(=O)c(C(=O)O)cn1c23 (stereo not shown) [Compound (X), reference compound] 11.4
